- Tested on: RPMI-8226 leukemia
- Experimental Details: NCI tumour cell line growth inhibition, 48 h
Metric: TGI

1) CC1=NC(C)(COC(=O)C2(C)NC(C)(CO)CO2)COC1=O (stereo unspecified) : > 100 µM
2) O=C(NC1CCCCC1)c1ccc(Nc2ncnc3c2cnn3-c2ccccc2)cc1 : > 100 µM
3) Cc1n[n+](Cc2ccccc2)c2sc(N)nn12 : > 100 µM
4) Oc1c(Br)ccc2cccnc12 : > 27.9 µM
5) COc1ccc(-c2cc(-c3ccc(Nc4ccnc5cc(Cl)ccc45)cc3)nc(N3CCOCC3)n2)cc1 : > 100 µM
6) CCOC(=O)C(C)(c1c(C)[nH]c2ccccc12)c1c(C)[nH]c2ccccc12 : 46.2 µM

----------
TGI for assorted compounds
- Tested on: M19-MEL melanoma
- Experimental Details: NCI tumour cell line growth inhibition, 48 h
Metric: TGI

1) c1ccc2c(c1)OCCOCCOc1ccccc1OCCO2 : > 100 µM
2) Cc1ccc(C(=O)NCc2ccccc2)cc1N=NN(C)C : > 100 µM
3) CN(C)CCCNc1ccc2ncn3c4ccc(O)cc4c(=O)c1c23 : 15.3 µM
4) O=C1CC2CCN(C(=O)c3ccccc3)CC2CCN1 (stereo not drawn) : > 100 µM
5) Cc1ccc2[c](c1)[Sn]([c]1ccccc1)([c]1ccccc1)[c]1cc(C)ccc1N2C : > 100 µM
6) Cc1ccc2c(c1-c1ccccc1)C(=O)OC2 : > 100 µM
7) COC(=O)c1c[nH]cc1CCCCc1c[nH]cc1C(=O)OC : > 100 µM
8) COc1cc(/C=N\O[Si](C)(C)C(C)(C)C)ccc1O[Si](C)(C)C(C)(C)C : > 100 µM
9) CC(=O)OC(CCC1(C)OC1COc1ccc(CCNC(=O)C=C(C)C)cc1)C(C)(C)OC(C)=O (stereo not drawn) : > 100 µM
10) COc1cc(/C=C/C(=O)Oc2ccccc2)ccc1C(=O)O/C=C/c1ccccc1 : > 100 µM
11) CCOc1ccc(N=Cc2c3ccccc3nc3ccccc23)cc1 : > 100 µM
12) Cc1ccc(NC(=O)C(=O)C2C(=O)NC(=O)NC2=O)cc1C : > 100 µM
13) Cc1c(Cl)cccc1NC(=O)c1cccc([N+](=O)[O-])c1O : 48 µM
14) CSc1ccc2c(cc1=O)[C@@H](NC(=O)c1cc(O)c(O)c(O)c1)CCc1cc(O)c(O)c(O)c1-2 : 29.9 µM
15) Cc1ccc(N2C(=O)N(c3ccc(C)cc3)C3(SC=NN3C)C2=O)cc1 (stereo not drawn) : > 100 µM
16) CCCCCCCCCCCCCCCCCCC1=C(O)C(=O)C=C(OC)C1=O : > 100 µM
17) CCOC(=O)CCC(NC(=O)c1ccc(NCc2ccc3nc(-c4ccccc4)c(Cl)nc3c2)cc1)C(=O)OCC (stereo not drawn) : 43.2 µM
18) C1=NC(N(Cc2ccccc2)Cc2ccccc2)N(Cc2ccccc2)N1 (stereo not drawn) : 34.2 µM

----------
Listing of entries alongside the reported log10(TGI).
- Test system: HT29 colon
- Experimental Details: NCI tumour cell line growth inhibition, 48 h
Metric: log10(TGI) (log10 of the value in µM)

1. CN(C)CCNc1nc2ccccc2c2c(=O)c3cc(F)ccc3sc12 : 0.54
2. COc1ccc2c(c1)C(C)Cc1c(ncnc1-n1cnc3ccccc31)N2C (configuration not stated) : 0.16
3. CCCn1cnc2c(SCc3ccc(Cl)cc3)nc(N)nc21 : 1.64
4. CCCCC1Cc2cc(O)ccc2-c2nc3cc(O)ccc3n21 (configuration not stated) (tested in a mixture with another compound) : 1.50
5. CCCCCCCCCCCC(=O)OC[C@@H](C[As](=O)(O)O)OC(=O)CCCCCCCCCCC : 1.40

----------
- Tested on: 786-0 renal
- Experimental Details: NCI tumour cell line growth inhibition, 48 h
The reader will find reported GI50 values listed item by item below.
Metric: GI50

1. COc1cc(/C=C/C(=O)C(C(=O)/C=C/c2ccc(OC(=O)CCNC34CC5CC(CC(C5)C3)C4)c(OC)c2)C(=O)CCNC23CC4CC(CC(C4)C2)C3)ccc1OC(=O)CCNC12CC3CC(CC(C3)C1)C2 (centres undefined) : 4.19 µM
2. CN(C)CCNc1nc2ccccc2c2c(=O)c3cc(F)ccc3sc12 : 1.47 µM
3. O=C(Nc1ccc(Cl)cc1)Nc1nccs1 : 11.1 µM
4. COc1ccc(-c2nn(-c3cccc(Cl)c3)cc2-c2nc(N)[nH]c(=O)c2C#N)cc1 : 4.65 µM

----------
- Test system: 786-0 renal
- Experimental Details: NCI tumour cell line growth inhibition, 48 h; in the data active = GI50 below about 0.43 µM; inactive = the rest
Labels: t (active), f (inactive)

1. COc1cc2c3c(n(CCCN(CCO)CCO)c(=O)c2cc1OC)-c1cc2c(cc1C3=O)OCO2 : t
2. Cc1ccc2[c](c1)[Sn]([c]1ccccc1)([c]1ccccc1)[c]1cc(C)ccc1N2C : f
3. Oc1ccc(Oc2cnc3ccccc3n2)cc1 : f
4. N#CC(C#N)=C1CCCOc2c1ccc1ccccc21 : f
5. CCOC(=O)C1=C(N)Oc2c(sc3c(C)cccc23)C1c1ccc(F)cc1 (stereo not drawn) : f
6. C=C(C)[C@@H]1CC[C@]2(C)[C@H](CC[C@@H]3[C@@H]([C@@](C)(O)CCC=C(C)C)CC[C@]32C)[C@@]1(C)CCC(=O)O : f
7. COC(=O)[C@]12CC[C@@H](C)[C@H](C)[C@@H]1C1=CC[C@@H]3[C@@]4(C)C(C=O)=C[C@@](C)(COC(=O)c5ccco5)[C@@H]4[C@H](O)C[C@@]3(C)[C@]1(C)CC2 : f
8. C=CCn1c(SCC(=O)Nc2ccc(C(=O)/C=C/c3cc(OC)c(OC)c(OC)c3)cc2)nnc1-c1ccc(OC)cc1 : f
9. CN1C(NNC(=O)c2cccnc2)=NS(=O)(=O)c2cc(Cl)ccc21 : f
10. COc1ccc(-c2cc(Nc3ccnc(N4CCOCC4)n3)on2)cc1 : t
11. COc1cc(OC)c2sc(-c3ccc(-n4cncc4-c4cc(OC)c(OC)c(OC)c4)cc3)nc2c1 : f
12. O=C(NNc1cnccn1)c1nc2cc(F)ccc2n2cccc12 : f
13. Cn1cc(-c2csc(-c3cn(C)c4ccc(F)cc34)n2)c2cnccc21 : f
14. Clc1nc(Cl)c2ncn(Cc3ccccc3Cn3cnc4c(Cl)nc(Cl)nc43)c2n1 : f
15. Nc1c(C(=O)Nc2ccccc2Cl)sc2nc3c(cc12)C(=O)CCC3 : f
16. Cc1noc2c1-c1ccccc1C(c1ccc(Cl)cc1)=N[C@H]2CC(N)=O : f
17. COc1cc(C(=O)O[C@H](C(N)=O)[C@]2(C)CO2)c2cccc(C)c2c1 : f
18. NCCCn1c2c(c3ccccc3c1=O)C(=O)c1ccccc1-2 : t

----------
- Test system: NCI/ADR-RES ovarian
- Experimental Details: NCI tumour cell line growth inhibition, 48 h
Metric: log10 of TGI (log10 of the value in µM)

1) Oc1ccc(N=Nc2nccs2)c(O)c1 : 0.96
2) O=C1c2ccccc2OCC12OC21C=CC(Cl)=CC1 (stereo unspecified) : 1.70
3) COc1ccc(-c2nn(-c3cccc(Cl)c3)cc2-c2nc(N)[nH]c(=O)c2C#N)cc1 : 1.20
4) CN(C)CCNc1nc2ccccc2c2c(=O)c3cc(F)ccc3sc12 : 0.49
5) COC(=O)[C@]12CC[C@@H](C)[C@H](C)[C@@H]1C1=CC[C@@H]3[C@@]4(C)C(C=O)=C[C@@](C)(COC(=O)c5ccco5)[C@@H]4[C@H](O)C[C@@]3(C)[C@]1(C)CC2 : 1.08

----------
- System: NCI-H226 lung
- Experimental Details: NCI tumour cell line growth inhibition, 48 h
Metric: GI50

1. COC(=O)[C@]12CC[C@@H](C)[C@H](C)[C@@H]1C1=CC[C@@H]3[C@@]4(C)C(C=O)=C[C@@](C)(COC(=O)c5ccco5)[C@@H]4[C@H](O)C[C@@]3(C)[C@]1(C)CC2 : 1.94 µM
2. O=C1c2ccccc2C(=O)c2c(NCCN=Cc3ccccc3O)cccc21 : 7.97 µM
3. COc1cc(/C=C/C(=O)C(C(=O)/C=C/c2ccc(OC(=O)CCNC34CC5CC(CC(C5)C3)C4)c(OC)c2)C(=O)CCNC23CC4CC(CC(C4)C2)C3)ccc1OC(=O)CCNC12CC3CC(CC(C3)C1)C2 (stereo unspecified) : 3.21 µM
4. NC(=O)CNc1ccc([As]=[As]c2ccc(NCC(N)=O)cc2)cc1 (stereo unspecified) : 5.62 µM
5. COc1ccc(-c2cc(-c3ccc(Nc4ccnc5cc(Cl)ccc45)cc3)nc(N3CCOCC3)n2)cc1 : > 100 µM
6. O=C(Nc1ccc(Cl)cc1)Nc1nccs1 : 4.46 µM

----------
- Test system: SK-MEL-5 melanoma
- Experimental Details: NCI tumour cell line growth inhibition, 48 h; in the data active = GI50 below about 0.43 µM; inactive = the rest
Labels: active, inactive

1. COC(=O)[C@]12CC[C@@H](C)[C@H](C)[C@@H]1C1=CC[C@@H]3[C@@]4(C)C(C=O)=C[C@@](C)(COC(=O)c5ccco5)[C@@H]4[C@H](O)C[C@@]3(C)[C@]1(C)CC2 : inactive
2. O=C(N/N=C/c1ccc(O)cc1O)c1cccnc1 : inactive
3. Cn1cc(S(=O)(=O)N2CCC3=Cc4c(cnn4-c4ccc(F)cc4)C[C@]3(C(=O)c3cc(C(F)(F)F)ccn3)C2)cn1 : inactive
4. COc1ccc(-c2cc(Nc3ccnc(N4CCOCC4)n3)on2)cc1 : active
5. Cc1ccc2[c](c1)[Sn]([c]1ccccc1)([c]1ccccc1)[c]1cc(C)ccc1N2C : inactive
6. Nc1c(C(=O)Nc2ccccc2Cl)sc2nc3c(cc12)C(=O)CCC3 : inactive
7. CCOC(=O)C1=C(N)Oc2c(sc3c(C)cccc23)C1c1ccc(F)cc1 (centres undefined) : inactive
8. NCCN.O=C([O-])[O-].O=C([O-])[O-].[Co+3].[K+] : inactive
9. O=C1c2ccccc2C(=O)c2c(NCCN=Cc3ccccc3O)cccc21 : inactive
10. O=C(NC1CCCCC1)c1ccc(Nc2ncnc3c2cnn3-c2ccccc2)cc1 : inactive
11. Cc1cc(NCCCCNc2ccnc3cc(Cl)ccc23)nc(Nc2ccc(C(=O)N3CCCCC3)cc2)n1 : inactive
12. O=C(Nc1ccc(Cl)cc1)Nc1nccs1 : inactive
13. COc1ccc2c(c1)C(C)Cc1c(ncnc1-n1cnc3ccccc31)N2C (centres undefined) : active
14. COc1cc(C(=O)O[C@H](C(N)=O)[C@]2(C)CO2)c2cccc(C)c2c1 : active
